System: 3797 S. aureus (GISA)
test-method-notes: MIC, broth microdilution in Meuller-Hinton broth (NCCLS)
Assay type: cell-based, Staphylococus aureus
conditions-used: glycopeptides-intermediate clinical isolate
readout-kind: MIC 3797 S. aureus (GISA) (µg/mL)
Express your answer in µg/mL, writing the number without its unit.

## Input Any idea what MIC 3797 S. aureus (GISA) was measured for CNC(CC(C)C)C(=O)NC1C(=O)NC(CC(N)=O)C(=O)NC2C(=O)NC3C(=O)NC(C(=O)NC(C(=O)O)c4cc(O)cc(O)c4-c4cc3ccc4O)C(OC3CC(C)(N)C(O)C(C)O3)c3ccc(cc3)Oc3cc2cc(c3OC2OC(CO)C(O)C(O)C2OC2CC(C)(NC(=O)CNCc3ccc(F)cc3)C(O)C(C)O2)Oc2ccc(cc2Cl)C1O (centres unmarked) ?
## Output 8

###

Tested on: 559 E. faecalis (GSE)
test-method-notes: MIC, broth microdilution in Meuller-Hinton broth (NCCLS)
Assay type: cell-based, Enterococcus faecalis
conditions-used: glycopeptide-sensitive clinical isolate
# maps each entry to its MIC 559 E. faecalis (GSE)
Express your answer in µg/mL, writing the number without its unit.

# example entries with known answers
compound	MIC 559 E. faecalis (GSE) [µg/mL]
CNC(CC(C)C)C(=O)NC1C(=O)NC(CC(N)=O)C(=O)NC2C(=O)NC3C(=O)NC(C(=O)NC(C(=O)O)c4cc(O)cc(O)c4-c4cc3ccc4O)C(OC3CC(C)(N)C(O)C(C)O3)c3ccc(cc3)Oc3cc2cc(c3OC2OC(CO)C(O)C(O)C2OC2CC(C)(NC(=O)[C@H](N)Cc3ccccc3)C(O)C(C)O2)Oc2ccc(cc2Cl)C1O (stereo partly drawn)	0.5
CNC(CC(C)C)C(=O)NC1C(=O)NC(CC(N)=O)C(=O)NC2C(=O)NC3C(=O)NC(C(=O)NC(C(=O)O)c4cc(O)cc(O)c4-c4cc3ccc4O)C(OC3CC(C)(N)C(O)C(C)O3)c3ccc(cc3)Oc3cc2cc(c3OC2OC(CO)C(O)C(O)C2OC2CC(C)(NC(=O)[C@@H](N)Cc3ccccc3)C(O)C(C)O2)Oc2ccc(cc2Cl)C1O (stereo partly drawn)	2

Here's the next entry for you.
## Input Any idea what MIC 559 E. faecalis (GSE) was measured for CNC(CC(C)C)C(=O)NC1C(=O)NC(CC(N)=O)C(=O)NC2C(=O)NC3C(=O)NC(C(=O)NC(C(=O)O)c4cc(O)cc(O)c4-c4cc3ccc4O)C(OC3CC(C)(N)C(O)C(C)O3)c3ccc(cc3)Oc3cc2cc(c3OC2OC(CO)C(O)C(O)C2OC2CC(C)(NC(=O)CNCc3ccc4c(c3)Cc3ccccc3-4)C(O)C(C)O2)Oc2ccc(cc2Cl)C1O (stereo not drawn) ?
## Output 2

###

# maps each entry to its MIC 3798 S. aureus (GISA)
Test system: 3798 S. aureus (GISA)
test-method-notes: MIC, broth microdilution in Meuller-Hinton broth (NCCLS)
Assay type: cell-based, Staphylococus aureus
conditions-used: glycopeptides-intermediate clinical isolate

# example entries with known answers
compound	MIC 3798 S. aureus (GISA)
CNC(CC(C)C)C(=O)NC1C(=O)NC(CC(N)=O)C(=O)NC2C(=O)NC3C(=O)NC(C(=O)NC(C(=O)O)c4cc(O)cc(O)c4-c4cc3ccc4O)C(OC3CC(C)(N)C(O)C(C)O3)c3ccc(cc3)Oc3cc2cc(c3OC2OC(CO)C(O)C(O)C2OC2CC(C)(NC(=O)CNCc3ccc(F)cc3)C(O)C(C)O2)Oc2ccc(cc2Cl)C1O (stereo not drawn) [Compound 293]	8 µg/mL
CNC(CC(C)C)C(=O)NC1C(=O)NC(CC(N)=O)C(=O)NC2C(=O)NC3C(=O)NC(C(=O)NC(C(=O)O)c4cc(O)cc(O)c4-c4cc3ccc4O)C(OC3CC(C)(N)C(O)C(C)O3)c3ccc(cc3)Oc3cc2cc(c3OC2OC(CO)C(O)C(O)C2OC2CC(C)(NC(=O)CNCc3c[nH]c4ccc(OCc5ccccc5)cc34)C(O)C(C)O2)Oc2ccc(cc2Cl)C1O (stereo not drawn) [Compound 224]	8 µg/mL

## Input Any idea what MIC 3798 S. aureus (GISA) was measured for CCCCCCCCOc1ccc(CNCC(=O)NC2(C)CC(OC3C(Oc4c5cc6cc4Oc4ccc(cc4Cl)C(O)C(NC(=O)C(CC(C)C)NC)C(=O)NC(CC(N)=O)C(=O)NC6C(=O)NC4C(=O)NC(C(=O)NC(C(=O)NC6C7CC8CC(C7)CC6C8)c6cc(O)cc(O)c6-c6cc4ccc6O)C(OC4CC(C)(N)C(O)C(C)O4)c4ccc(cc4)O5)OC(CO)C(O)C3O)OC(C)C2O)cc1 (stereo not drawn) [Compound 265] ?
## Output >32 µg/mL
